Biological target: cGMP-dependent 3',5'-cyclic phosphodiesterase (Homo sapiens)
Sequence (O00408 whole entry): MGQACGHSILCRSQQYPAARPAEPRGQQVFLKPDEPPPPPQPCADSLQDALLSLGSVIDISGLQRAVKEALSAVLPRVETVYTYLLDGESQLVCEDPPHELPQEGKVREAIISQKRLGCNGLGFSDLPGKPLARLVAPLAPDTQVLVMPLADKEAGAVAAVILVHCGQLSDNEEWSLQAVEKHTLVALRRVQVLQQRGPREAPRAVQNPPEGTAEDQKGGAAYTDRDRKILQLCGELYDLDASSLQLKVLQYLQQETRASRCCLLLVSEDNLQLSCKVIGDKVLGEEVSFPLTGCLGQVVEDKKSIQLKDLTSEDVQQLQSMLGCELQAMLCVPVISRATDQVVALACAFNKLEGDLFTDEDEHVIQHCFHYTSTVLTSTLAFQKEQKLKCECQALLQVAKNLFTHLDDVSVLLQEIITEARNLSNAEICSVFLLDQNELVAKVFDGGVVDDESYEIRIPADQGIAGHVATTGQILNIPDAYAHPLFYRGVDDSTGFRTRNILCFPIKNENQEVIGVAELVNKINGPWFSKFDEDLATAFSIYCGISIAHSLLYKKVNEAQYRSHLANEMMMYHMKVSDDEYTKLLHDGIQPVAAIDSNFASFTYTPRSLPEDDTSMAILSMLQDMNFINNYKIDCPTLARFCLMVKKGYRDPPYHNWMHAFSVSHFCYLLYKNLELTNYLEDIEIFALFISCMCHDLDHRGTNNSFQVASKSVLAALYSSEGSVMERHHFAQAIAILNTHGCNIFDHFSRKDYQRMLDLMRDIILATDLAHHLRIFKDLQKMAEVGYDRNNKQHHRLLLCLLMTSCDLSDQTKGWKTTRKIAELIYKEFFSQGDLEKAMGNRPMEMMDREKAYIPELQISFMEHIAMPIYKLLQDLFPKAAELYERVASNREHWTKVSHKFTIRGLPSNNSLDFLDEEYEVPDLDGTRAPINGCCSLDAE
reported-property: IC50

stdin: Given the entry `CS(=O)(=O)Nc1ccc(C(=O)O[C@@H](Cc2c(Cl)c[n+]([O-])cc2Cl)c2ccc(OC(F)F)c(OCC3CC3)c2)cc1OCC1CC1` , report its measured IC50.
stdout: > 1000 nM

---

Test: Metabolic stability in human plasma assessed as compound remaining at 5 uM after 1 hr by LC-MS/MS analysis
Format: ADME, cell-free
Conditions: read-out: Stability
reported-property: remaining at 1 h, 5 µM (%)
Give the value in % but do not write % after it.

stdin: I would be grateful if you could share the reported remaining at 1 h, 5 µM for `CS(=O)(=O)Nc1ccc(C(=O)O[C@@H](Cc2c(Cl)c[n+]([O-])cc2Cl)c2ccc(OC(F)F)c(OCC3CC3)c2)cc1OCC1CC1` .
stdout: 100

---

Target: Phosphodiesterase 4 (Homo sapiens, UniProt P27815+Q08499+Q07343+Q08493)
Assay: Inhibition of PDE4 activity in human PBMC assessed as inhibition of LPS-induced TNFalpha release after 18 hrs by ELISA
Criterion: IC50 strictly under 0.5 nM. Met: MET. Not met: NOT MET.

Example entries begin here.
CS(=O)(=O)Nc1cc(C(=O)O[C@@H](Cc2c(Cl)c[n+]([O-])cc2Cl)c2ccc(OC(F)F)c(OCC3CC3)c2)ccc1OCc1ccccc1; NOT MET
CS(=O)(=O)Nc1ccc(C(=O)O[C@@H](Cc2c(Cl)c[n+]([O-])cc2Cl)c2ccc(OC(F)F)c(OCC3CC3)c2)cc1OCc1ccccc1; NOT MET
COc1ccc(C(=O)O[C@@H](Cc2c(Cl)c[n+]([O-])cc2Cl)c2ccc(OC(F)F)c(OCC3CC3)c2)cc1NS(C)(=O)=O; MET
COc1ccc(C(=O)O[C@@H](Cc2c(Cl)c[n+]([O-])cc2Cl)c2ccc(OC(F)F)c(OCC3CC3)c2)cc1; MET
O=C(O[C@@H](Cc1c(Cl)c[n+]([O-])cc1Cl)c1ccc(OC(F)F)c(OCC2CC2)c1)c1ccc(CO)c(OCC2CC2)c1; NOT MET

stdin: For `Nc1ccc(C(=O)O[C@@H](Cc2c(Cl)c[n+]([O-])cc2Cl)c2ccc(OC(F)F)c(OCC3CC3)c2)cc1OCC1CC1` , is the recorded IC50 below the cut-off of 0.5 nM?
stdout: MET

stdin: Confirm or reject: IC50 of `CS(=O)(=O)Nc1ccc(C(=O)O[C@@H](Cc2c(Cl)c[n+]([O-])cc2Cl)c2ccc(OC(F)F)c(OCC3CC3)c2)cc1CO` lies strictly below 0.5 nM
stdout: NOT MET

---

Measured log10 of IC50, listed per entry for reference.
Target: Phosphodiesterase 4 (Homo sapiens, UniProt P27815+Q08499+Q07343+Q08493)
Experiment: Inhibition of PDE4 isolated from human U937 cells assessed as […] by LANCE assay
Assay type: cell-free
Conditions: u-937
log10 IC50, pM

COc1ccc(NS(C)(=O)=O)c(C(=O)O[C@@H](Cc2c(Cl)c[n+]([O-])cc2Cl)c2ccc(OC(F)F)c(OCC3CC3)c2)c1; 2.60

stdin: Lookup: log10 of IC50 / Phosphodiesterase 4 (Homo sapiens, UniProt P27815+Q08499+Q07343+Q08493) / `O=C(O[C@@H](Cc1c(Cl)c[n+]([O-])cc1Cl)c1ccc(OC(F)F)c(OCC2CC2)c1)c1ccc(Cl)cc1`
stdout: 2.20

stdin: Requested read-out log10 of IC50, target or system Phosphodiesterase 4 (Homo sapiens, UniProt P27815+Q08499+Q07343+Q08493), entry `O=C(O[C@@H](Cc1c(Cl)c[n+]([O-])cc1Cl)c1ccc(OC(F)F)c(OCC2CC2)c1)c1ccc(NS(=O)(=O)C2CC2)c(OCC2CC2)c1`
stdout: 2.18

stdin: Can you look up log10 of IC50 on Phosphodiesterase 4 (Homo sapiens, UniProt P27815+Q08499+Q07343+Q08493) for `COc1cccc(NS(C)(=O)=O)c1C(=O)O[C@@H](Cc1c(Cl)c[n+]([O-])cc1Cl)c1ccc(OC(F)F)c(OCC2CC2)c1` ?
stdout: 3.83

---

Experiment: Apparent permeability across human Caco2 cells at 10 uM after 2 hrs by LC-MS/MS analysis
Assay type: ADME, cell-based
Details: Caco-2
reported-property: Papp at 2 h, 10 µM

stdin: // query Papp at 2 h, 10 µM value for entry `CS(=O)(=O)Nc1ccc(C(=O)O[C@@H](Cc2c(Cl)c[n+]([O-])cc2Cl)c2ccc(OC(F)F)c(OCC3CC3)c2)cc1OCC1CC1`
stdout: < 10 nm/s

---

Biological target: Phosphodiesterase 4 (Homo sapiens, UniProt P27815+Q08499+Q07343+Q08493)
Test: Inhibition of PDE4 isolated from human U937 cells assessed as […] by LANCE assay
Type: cell-free
Conditions: u-937
Entries and their IC50 values follow.
Respond numerically; units are nM and should not be typed.

Reference set, count: 3
[O-][n+]1cc(Cl)c(C[C@H](O)c2ccc(OC(F)F)c(OCC3CC3)c2)c(Cl)c1; 9.44
O=C(O/C(=C\c1c(Cl)cncc1Cl)c1ccc(OC(F)F)c(OCC2CC2)c1)c1ccc(OC(F)F)c(OCC2CC2)c1; 1.18
COc1ccc(C(=O)O[C@@H](Cc2c(Cl)c[n+]([O-])cc2Cl)c2ccc(OC(F)F)c(OCC3CC3)c2)cc1O; 0.08

Could you now consider this next compound?
stdin: Give recorded IC50 with Phosphodiesterase 4 (Homo sapiens, UniProt P27815+Q08499+Q07343+Q08493) for the following compound: `CS(=O)(=O)Nc1ccc(C(=O)O[C@@H](Cc2c(Cl)c[n+]([O-])cc2Cl)c2ccc(OC(F)F)c(OCC3CC3)c2)cc1OCc1ccccc1`
stdout: 0.56

---

Test: Metabolic stability in rat plasma assessed as compound remaining at 5 uM after 1 hr by LC-MS/MS analysis
Assay type: ADME, cell-free
Conditions: read-out: Stability
reported-property: remaining at 1 h, 5 µM (%)
Entry rule: numbers only, all in %.

stdin: Reported remaining at 1 h, 5 µM, molecule `CS(=O)(=O)Nc1ccc(C(=O)O[C@@H](Cc2c(Cl)c[n+]([O-])cc2Cl)c2ccc(OC(F)F)c(OCC3CC3)c2)cc1OCC1CC1` : ____
stdout: 100

---

Below is a list of entries, each paired with its recorded logD value.
Assay: n-Octanol-buffer partition coefficient, log D of the compound at pH 7.4 by shake-flask method
Answer field: number only, no words.

C[C@@H]1C[C@H]2[C@@H]3C[C@H](F)C4=CC(=O)C=C[C@]4(C)[C@@]3(F)[C@@H](O)C[C@]2(C)[C@@]1(OC(=O)c1ccco1)C(=O)SCF [FLUTICASONE FUROATE]; 4.43

stdin: Given the molecule `CS(=O)(=O)Nc1ccc(C(=O)O[C@@H](Cc2c(Cl)c[n+]([O-])cc2Cl)c2ccc(OC(F)F)c(OCC3CC3)c2)cc1OCC1CC1` , what is its reported logD?
stdout: 4.48

stdin: Item Cc1ccc(O)c(C(=O)N[C@H]2CC[C@@H](NC(=O)c3cc(F)cnc3Oc3ccc(F)c(F)c3)CC2)c1 [UK-500001] has what recorded logD?
stdout: 4.27

---

Experiment: Metabolic stability in human lung S9 fraction assessed as compound remaining at 1 uM after 1 hr by LC-MS/MS analysis
Format: ADME
Conditions: read-out: Stability
reported-property: remaining at 1 h, 1 µM (%)
Answer format: numeric, % implied, no suffix.

stdin: Look up remaining at 1 h, 1 µM: `CS(=O)(=O)Nc1ccc(C(=O)O[C@@H](Cc2c(Cl)c[n+]([O-])cc2Cl)c2ccc(OC(F)F)c(OCC3CC3)c2)cc1OCC1CC1`
stdout: 100

---

Biological target: Phosphodiesterase 4 (Homo sapiens, UniProt P27815+Q08499+Q07343+Q08493)
Assay: Inhibition of PDE4 activity in human PBMC assessed as inhibition of LPS-induced TNFalpha release after 18 hrs by ELISA
Below, each entry is listed alongside its reported IC50.
Lab book: enter the figure in nM, no units written.

Some solved cases for reference:
CNS(=O)(=O)c1cc(C(=O)O[C@@H](Cc2c(Cl)c[n+]([O-])cc2Cl)c2ccc(OC(F)F)c(OCC3CC3)c2)ccc1OC; 0.25
CS(=O)(=O)Nc1ccc(C(=O)O[C@@H](Cc2c(Cl)c[n+]([O-])cc2Cl)c2ccc(OC(F)F)c(OCC3CC3)c2)cc1; 0.13
O=C(O[C@@H](Cc1c(Cl)c[n+]([O-])cc1Cl)c1ccc(OC(F)F)c(OCC2CC2)c1)c1ccc(C(F)(F)F)cc1; 21

stdin: Record request: IC50 value, item `COc1ccc(C(=O)O[C@@H](Cc2c(Cl)c[n+]([O-])cc2Cl)c2ccc(OC(F)F)c(OCC3CC3)c2)cc1OC(C)=O`
stdout: 0.96

stdin: Please look up its IC50: `Cc1ccc(C(=O)O[C@@H](Cc2c(Cl)c[n+]([O-])cc2Cl)c2ccc(OC(F)F)c(OCC3CC3)c2)cc1`
stdout: 0.66

stdin: # query: IC50 of entry `COc1ccc(C(=O)O[C@@H](Cc2c(Cl)c[n+]([O-])cc2Cl)c2ccc(OC(F)F)c(OCC3CC3)c2)cc1S(=O)(=O)N(C)C`
stdout: 1.85

stdin: Item `Cc1cc(C(=O)O[C@@H](Cc2c(Cl)c[n+]([O-])cc2Cl)c2ccc(OC(F)F)c(OCC3CC3)c2)ccc1NS(C)(=O)=O` has what recorded IC50?
stdout: 0.41

stdin: // lookup IC50 for `O=C(O[C@@H](Cc1c(Cl)c[n+]([O-])cc1Cl)c1ccc(OC(F)F)c(OCC2CC2)c1)c1ccc([N+](=O)[O-])c(OCC2CC2)c1`
stdout: 0.69
